molecular target: proliferating cell nuclear antigen (PCNA) (UniProt P12004 1-261); test: ITC
Sequence (P12004 whole entry): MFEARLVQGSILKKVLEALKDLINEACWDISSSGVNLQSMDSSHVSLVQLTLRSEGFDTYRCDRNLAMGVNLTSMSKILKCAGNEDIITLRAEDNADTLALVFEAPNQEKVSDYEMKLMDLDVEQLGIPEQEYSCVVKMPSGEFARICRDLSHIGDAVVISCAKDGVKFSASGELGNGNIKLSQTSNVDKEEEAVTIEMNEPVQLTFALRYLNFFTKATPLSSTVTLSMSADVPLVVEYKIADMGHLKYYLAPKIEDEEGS
REPORTED ENDPOINT: dH (kcal/mol)

* Ac-RKRRQTSMTDFYHSKRR-NH2 [p21_(140–156) peptide (wild-type p21 PIP-degron with flanking regions)] | -18.1
* Ac-KRKKQTSMTDFYHSRKK-NH2 [p21_(SWAP) peptide] | -14.5
* Ac-RRRRQTSMTDFYHSRRR-NH2 [p21_(All–R) peptide] | -20.8
* Ac-KKKKQTSMTDFYHSKKK-NH2 [p21_(All–K) peptide] | -16.3
* Ac-QTSMTDFYHS-NH2 [p21_(core) peptide (isolated p21 core motif QTSMTDFYHS)] | -13.4

Measured values drawn from paper PMC12366268 for this set.
